Biological target: T1, Human CD137 ECD (human)
T1 construct: also called 4-1BB
T1 sequence (chain, as listed by the source limits assumed): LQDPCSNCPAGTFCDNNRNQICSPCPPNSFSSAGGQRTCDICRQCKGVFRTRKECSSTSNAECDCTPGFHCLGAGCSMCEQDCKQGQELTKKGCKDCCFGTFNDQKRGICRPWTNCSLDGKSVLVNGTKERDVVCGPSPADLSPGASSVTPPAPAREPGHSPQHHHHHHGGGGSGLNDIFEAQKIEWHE
Assay: single mutant vs template dBBDu183H
Measured fold change of affinity by item
# value in fold; strip the unit string

Use these answered entries as a reference point.
H183/L072 VH G65M (antibody, name in Kabat numbering, V domains shown) VH: QVQLVESGGGLVQPGRSLRLSCAASGFTFSNAWMHWVRQAPGKGLEWVAQIKDKGNAYAAYYAPSVKMRFTISRDDSKNSIYLQMNSLKTEDTAVYYCHYVHYASASTVLPAFGVDAWGQGTTVTVSS VL: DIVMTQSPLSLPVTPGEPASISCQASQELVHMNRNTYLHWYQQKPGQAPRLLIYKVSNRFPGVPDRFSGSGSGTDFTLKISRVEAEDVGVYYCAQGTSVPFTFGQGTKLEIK
1.2
H183/L072 VH Y94A (antibody, name in Kabat numbering, V domains shown) VH: QVQLVESGGGLVQPGRSLRLSCAASGFTFSNAWMHWVRQAPGKGLEWVAQIKDKGNAYAAYYAPSVKGRFTISRDDSKNSIYLQMNSLKTEDTAVYYCHAVHYASASTVLPAFGVDAWGQGTTVTVSS VL: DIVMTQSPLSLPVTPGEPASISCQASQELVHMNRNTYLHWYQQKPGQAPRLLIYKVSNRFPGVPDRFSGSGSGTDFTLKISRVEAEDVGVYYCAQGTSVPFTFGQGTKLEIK
0
H183/L072 VH A32M (antibody, name in Kabat numbering, V domains shown) VH: QVQLVESGGGLVQPGRSLRLSCAASGFTFSNMWMHWVRQAPGKGLEWVAQIKDKGNAYAAYYAPSVKGRFTISRDDSKNSIYLQMNSLKTEDTAVYYCHYVHYASASTVLPAFGVDAWGQGTTVTVSS VL: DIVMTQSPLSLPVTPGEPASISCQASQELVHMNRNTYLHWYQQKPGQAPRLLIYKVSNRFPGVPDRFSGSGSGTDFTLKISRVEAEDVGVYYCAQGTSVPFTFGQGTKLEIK
1.6
H183/L072 VH V100iA (antibody, name in Kabat numbering, V domains shown) VH: QVQLVESGGGLVQPGRSLRLSCAASGFTFSNAWMHWVRQAPGKGLEWVAQIKDKGNAYAAYYAPSVKGRFTISRDDSKNSIYLQMNSLKTEDTAVYYCHYVHYASASTVLPAFGADAWGQGTTVTVSS VL: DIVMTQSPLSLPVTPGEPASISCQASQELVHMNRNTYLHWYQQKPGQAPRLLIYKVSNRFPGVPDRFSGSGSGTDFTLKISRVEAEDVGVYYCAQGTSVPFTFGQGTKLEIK
0
H183/L072 VH A57P (antibody, name in Kabat numbering, V domains shown) VH: QVQLVESGGGLVQPGRSLRLSCAASGFTFSNAWMHWVRQAPGKGLEWVAQIKDKGNAYAPYYAPSVKGRFTISRDDSKNSIYLQMNSLKTEDTAVYYCHYVHYASASTVLPAFGVDAWGQGTTVTVSS VL: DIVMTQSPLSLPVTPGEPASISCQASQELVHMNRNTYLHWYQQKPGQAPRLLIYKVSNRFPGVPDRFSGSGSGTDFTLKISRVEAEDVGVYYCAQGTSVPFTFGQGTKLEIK
1

As a next step, examine the binder that follows.
What value of measured fold change of affinity is listed for H183/L072 VH I51Y (antibody, name in Kabat numbering, V domains shown) VH: QVQLVESGGGLVQPGRSLRLSCAASGFTFSNAWMHWVRQAPGKGLEWVAQYKDKGNAYAAYYAPSVKGRFTISRDDSKNSIYLQMNSLKTEDTAVYYCHYVHYASASTVLPAFGVDAWGQGTTVTVSS VL: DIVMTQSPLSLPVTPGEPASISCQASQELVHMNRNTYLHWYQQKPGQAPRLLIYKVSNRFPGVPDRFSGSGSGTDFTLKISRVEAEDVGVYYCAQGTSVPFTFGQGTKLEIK ? 0

Where do the numbers come from? From patent US20210388087A1.
